- System: MDA-MB-231
- methodNotes: NCI tumour cell line growth inhibition, 48 h
Active and inactive are the calls of the source. Rule as the data show it: active = GI50 up to about 1.1 µM and inactive = higher.
# valid calls are 1 (active), 0 (inactive); nothing else

# compound, labelValue
records = [
    ("CC(=O)O/N=C/c1c2ccccc2cc2ccccc12", 0),
    ("CN1CCC2(CC1)/C(=N/C1CCCCC1)NC(=S)N2c1ccccc1", 0),
]

Query: Identify the outcome logged in this assay for the compound shown: CCN1CCC(O)(/C=C/c2ccc(C(C)C)cc2)C(C(=O)/C=C/c2ccc(C(C)C)cc2)C1 (configuration not stated)
Reply: 0

Query: Identify the outcome logged in this assay for the compound shown: COc1ccc(O)c(/C=N/NC(=S)N2CCCCC2)c1
Reply: 0

Query: Identify the outcome logged in this assay for the compound shown: Cc1sc2ccccc2[n+]1CCC(=O)O
Reply: 0

Query: Identify the outcome logged in this assay for the compound shown: O=C(c1ccc2ccccc2c1O)N1CCCCC1
Reply: 0

Query: Identify the outcome logged in this assay for the compound shown: C=C(Br)C(C)(Cl)CCC(Br)C(C)(C)Cl (configuration not stated)
Reply: 0

Query: Identify the outcome logged in this assay for the compound shown: Clc1ccc(/C=C/c2nc(-c3ccc(Cl)cc3)cn3c2nc2ccccc23)cc1
Reply: 0

Query: Identify the outcome logged in this assay for the compound shown: COC(=O)/C=C/c1ccccc1N=[S@](C)(=O)c1ccc(C)cc1
Reply: 0

Query: Identify the outcome logged in this assay for the compound shown: CC(=O)OC[C@]12CCC3[C@@]4(C)CCCC(C)(C)C4CC[C@@]3(C)C1CC(C1=CC(=O)OC1O)O2 (some centres not stated)
Reply: 0

Query: Identify the outcome logged in this assay for the compound shown: C/C1=C\C=C(\C(C)C)CC/C(C(=O)O)=C\CC/C(C)=C/CC1
Reply: 0

Query: Identify the outcome logged in this assay for the compound shown: COC(=O)C1CCCN1C(=O)OC(C)(C)C (configuration not stated)
Reply: 0

Query: Identify the outcome logged in this assay for the compound shown: COC(=O)c1c2c(cc3c1CC1(Cc4cc5c(c(C(C)=O)c4C1)CCCC5)C3)CCCC2 (configuration not stated)
Reply: 0

Query: Identify the outcome logged in this assay for the compound shown: O=c1c2c3c(sc2nc2n1N=C(c1ccc([N+](=O)[O-])cc1)CS2)CCCC3
Reply: 0

Query: Identify the outcome logged in this assay for the compound shown: O=c1cnn(C2OC(CO)C(O)C(F)C2O)c(=O)[nH]1 (configuration not stated)
Reply: 0

Query: Identify the outcome logged in this assay for the compound shown: Cc1c(N(C)C)ccc2c(=O)c3cccc(CC(=O)O)c3oc12
Reply: 0

Query: Identify the outcome logged in this assay for the compound shown: C[C@]12CC[C@H]3[C@@H](CCC4=C(Br)C(=O)C=C[C@@]43O)[C@@H]1CCC2=O
Reply: 0

Query: Identify the outcome logged in this assay for the compound shown: CC(=O)/C(=C\c1ccc(Cl)c(Cl)c1)C(=O)C(C)CN(C)C (configuration not stated)
Reply: 0

Query: Identify the outcome logged in this assay for the compound shown: Cc1ccc(S(=O)(=O)N/N=C2\C(=O)Nc3cc(O)c(C(=O)O)cc32)cc1
Reply: 0

Query: Identify the outcome logged in this assay for the compound shown: C=CCSc1nnc2cc(CN3CCCC3)c(-c3ccc(Cl)cc3)nn12
Reply: 0

Query: Identify the outcome logged in this assay for the compound shown: CCc1[nH]c(=O)c2oc3cc4ccccc4cc3c2c1C(=O)O
Reply: 1

Query: Identify the outcome logged in this assay for the compound shown: C[C@]12CCC3c4ccc(O)cc4CC[C@H]3C1CC(=O)N(CCN1CCCC1)C2=O (some centres not stated)
Reply: 0

Query: Identify the outcome logged in this assay for the compound shown: CC1(C)[C@@H](Cn2cnc3c(N)ncnc32)CC[C@@]1(C)CO
Reply: 0
